# system name: T1, canine NGF tagged at the C-terminus with the Flag tag (canine, UniProt A0A8I3PYI3 122-241)
# T1 construct: mature; Expressed with baculovirus technology; also called feline NGF (processed form identical)
# T1 sequence (A0A8I3PYI3 entry or part of it): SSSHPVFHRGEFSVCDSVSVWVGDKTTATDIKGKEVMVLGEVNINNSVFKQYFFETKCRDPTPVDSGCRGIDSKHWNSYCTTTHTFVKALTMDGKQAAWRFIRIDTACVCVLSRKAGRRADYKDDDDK
# measurement notes: SPR off-rate assay, Fab-SASA on BSA chip
measured property: pKd
A value of pKd is the negative decimal logarithm of a concentration given in moles per litre.

What value of pKd has been reported for the following binder? AHF17596 (Fab, V domains shown, not shown: small tags and cut ends) VH: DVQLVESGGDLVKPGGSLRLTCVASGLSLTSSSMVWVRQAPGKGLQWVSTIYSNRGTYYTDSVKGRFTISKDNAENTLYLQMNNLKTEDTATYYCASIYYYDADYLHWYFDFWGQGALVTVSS VL: EIQMTQSPTSLSASVGDRVTITCRASEGIANNLSWYQQTPGKAPKLLIYATSVLHSGVPSRFSGSGSGTDFTLTISSLQPEDFATYYCQQGYKWPLTFGGGTKLEITR 10.10
